Biological target: T1, EsCas13d, nuclease-dead (Eubacterium siraeum, UniProt B0MS50, R295A;H300A;R849A;H854A)
T1 sequence: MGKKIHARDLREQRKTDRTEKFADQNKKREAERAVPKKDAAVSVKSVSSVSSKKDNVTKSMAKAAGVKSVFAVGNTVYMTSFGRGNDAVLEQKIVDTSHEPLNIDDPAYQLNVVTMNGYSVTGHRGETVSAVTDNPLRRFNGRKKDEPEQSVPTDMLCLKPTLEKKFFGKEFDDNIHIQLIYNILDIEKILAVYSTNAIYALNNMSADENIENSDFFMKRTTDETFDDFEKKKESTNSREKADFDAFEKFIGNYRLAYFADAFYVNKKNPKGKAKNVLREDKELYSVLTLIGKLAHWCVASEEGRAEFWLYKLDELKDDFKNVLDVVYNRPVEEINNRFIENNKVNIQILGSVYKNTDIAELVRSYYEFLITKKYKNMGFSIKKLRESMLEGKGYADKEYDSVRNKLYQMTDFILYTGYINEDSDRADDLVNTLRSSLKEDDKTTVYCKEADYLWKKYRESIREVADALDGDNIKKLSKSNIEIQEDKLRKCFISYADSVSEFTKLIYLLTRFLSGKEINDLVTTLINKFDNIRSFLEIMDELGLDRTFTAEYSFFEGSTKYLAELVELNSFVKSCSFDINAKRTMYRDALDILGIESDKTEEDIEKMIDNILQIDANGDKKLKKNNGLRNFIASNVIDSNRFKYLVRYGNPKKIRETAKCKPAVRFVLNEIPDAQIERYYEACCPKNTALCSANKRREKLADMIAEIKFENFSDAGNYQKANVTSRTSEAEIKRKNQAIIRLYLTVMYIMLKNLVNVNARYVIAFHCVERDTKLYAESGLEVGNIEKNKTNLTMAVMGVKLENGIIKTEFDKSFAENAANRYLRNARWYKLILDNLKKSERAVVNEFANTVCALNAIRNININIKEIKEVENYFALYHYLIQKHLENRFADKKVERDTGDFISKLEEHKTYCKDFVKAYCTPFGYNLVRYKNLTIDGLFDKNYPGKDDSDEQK
Experiment: crRNA (strand 1, pre-loaded); Mg2+; 40 mM Tris-HCl pH 7.5, 150 mM NaCl, 6 mM MgCl2, 1 mM DTT, 0.1% Tween-20, 0.2 mg/ml BSA; 25 C; 10 min per concentration, then washed
Details: tags: His6-TwinStrep-SUMO cleaved; N-terminal SNAP kept (SNAP-Surface 488); label: 3' end held by stalled T7 RNA polymerase
pKd: −log10 of the molar value.
MEASUREMENT KIND: pKd

binder="target 3 C1G,A18G (mixed) RNA 1: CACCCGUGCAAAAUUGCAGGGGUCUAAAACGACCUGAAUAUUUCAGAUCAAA RNA 2: GGGAAUGGAUCCACAUCUACGAAUUCGUUUUUGGUCUGAAAUAUUCAGGUGUGCAGAUCGGAAGAGCACACGU" measurement_kind=pKd recorded_value=7.73
binder="target 1 A16U,G17U (mixed) RNA 1: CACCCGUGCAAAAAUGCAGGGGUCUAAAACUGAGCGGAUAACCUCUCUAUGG RNA 2: GGGAAUGGAUCCACAUCUACGAAUUCGUACCAUAUUGAGGUUAUCCGCUCACCGAGAUCGGAAGAGCACACGU" measurement_kind=pKd recorded_value=7.66
binder="target 2 MT 5'PFS UAC 3'PFS CGC (mixed) RNA 1: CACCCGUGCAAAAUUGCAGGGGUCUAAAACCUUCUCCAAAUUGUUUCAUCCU RNA 2: GGGAAUGGAUCCACAUCUACGAAUUCUACAGGAUGAAACAAUUUGGAGAAGCGCAGAUCGGAAGAGCACACGU" measurement_kind=pKd recorded_value=8.26
binder="target 2 MT 5'PFS UAA 3'PFS AUG (mixed) RNA 1: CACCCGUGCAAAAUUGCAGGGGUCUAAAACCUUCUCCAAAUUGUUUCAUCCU RNA 2: GGGAAUGGAUCCACAUCUACGAAUUCUAAAGGAUGAAACAAUUUGGAGAAGAUGAGAUCGGAAGAGCACACGU" measurement_kind=pKd recorded_value=8.25
